Provide the reported FACS-Seq fitted mean (log10) of each item.
B1: library; a variant is named by its letters at N, in order (parent)
chain: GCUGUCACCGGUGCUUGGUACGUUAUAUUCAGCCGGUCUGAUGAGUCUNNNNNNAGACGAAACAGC

Variants of: B1
procedure details: FACS-Seq fitted mean relative fluorescence mCherry/BFP without ligand (log10 relative fluorescence); HEK293T overexpressing SLC46A1; higher = higher reporter protein expression
cond: without (6R,S)-folinic acid; ligand present: no
Hey, just send me the number, nothing else.

Would you kindly share the measured FACS-Seq fitted mean (log10) for `GCGAGA` ?
0.0695

State the recorded FACS-Seq fitted mean (log10) for this entry: `CGUGAA`
0.328

# get_value(readout='FACS-Seq fitted mean (log10)', item= `GCCAGC` )
0.269

Please look up its FACS-Seq fitted mean (log10): `UACAAA`
0.165

Name the recorded FACS-Seq fitted mean (log10) for `AGUUCA` .
0.161

What FACS-Seq fitted mean (log10) value was documented for this variant, `GACGGU` ?
0.318

Suppose we examine the variant `CUUAUU` ; what FACS-Seq fitted mean (log10) value has been reported?
0.473

Quick check: FACS-Seq fitted mean (log10) of `UACGGG` ?
0.198

Which FACS-Seq fitted mean (log10) reading was recorded for the variant `GUAAGC` ?
0.239

Entry under review: `AACGAA` . Reported FACS-Seq fitted mean (log10)?
0.105

Look up FACS-Seq fitted mean (log10): `UGAUGA`
0.447

I'd like to know its FACS-Seq fitted mean (log10). The variant in question is `GUGAAU`
0.0592

Using the record for `CUCGAG` , report its FACS-Seq fitted mean (log10).
0.167

FACS-Seq fitted mean (log10) lookup needed for `UGAAAA` , thanks.
0.648

Report FACS-Seq fitted mean (log10) for `UGGAUU` please.
0.509

Item under review: `UGAAGA` . Reported FACS-Seq fitted mean (log10)?
0.139

Quick check: FACS-Seq fitted mean (log10) of `UCAGGA` ?
0.149

I would be grateful if you could share the reported FACS-Seq fitted mean (log10) for `GAGCAG` .
0.523

Would you kindly share the measured FACS-Seq fitted mean (log10) for `GCGCAC` ?
0.472

Report FACS-Seq fitted mean (log10) for `ACUGAA` please.
0.265

Reported FACS-Seq fitted mean (log10), variant `AACUUG` : ____
0.321

Bench note: what FACS-Seq fitted mean (log10) did `GAGUAG` show?
0.282

Suppose we examine the variant `AAACGU` ; what FACS-Seq fitted mean (log10) value has been reported?
0.248

Item under review: `UAACCA` . Reported FACS-Seq fitted mean (log10)?
0.441

Recorded FACS-Seq fitted mean (log10) of `UGAGAA` , please.
0.5

Param item = `UAGCGG` ; retrieve measured FACS-Seq fitted mean (log10).
-0.127

Param item = `GUAAAC` ; retrieve measured FACS-Seq fitted mean (log10).
0.139

Need FACS-Seq fitted mean (log10) of `GUCUCG` , thanks.
0.378

Which FACS-Seq fitted mean (log10) value is on record for `AAUAAA` ?
-0.274

Which FACS-Seq fitted mean (log10) is listed for `CUUGAG` ?
0.41

Need FACS-Seq fitted mean (log10), item `AUAAGC`
0.38

Entry `UUUGAU` has what FACS-Seq fitted mean (log10)?
0.135

Look up FACS-Seq fitted mean (log10) for this variant: `UAGCCG`
0.635

FACS-Seq fitted mean (log10) lookup needed for `AAGGAA` , thanks.
0.513

Reported FACS-Seq fitted mean (log10), variant `UGGUGG` : ____
0.464

GET /values?readout=FACS-Seq fitted mean (log10)&item= `UAUUAC`
0.106

Can you share its FACS-Seq fitted mean (log10)? I mean this variant: `GACGUA`
0.251

Give the measured FACS-Seq fitted mean (log10) of `GUUCGC` .
0.511

Suppose we examine the variant `AUAACU` ; what FACS-Seq fitted mean (log10) value has been reported?
-0.545

Which FACS-Seq fitted mean (log10) is listed for `UGCGUG` ?
-0.00857

Look up FACS-Seq fitted mean (log10) for this variant: `AACCAU`
0.386

What measured FACS-Seq fitted mean (log10) goes with `GAGCCG` ?
0.537

Look at this variant and give its reported FACS-Seq fitted mean (log10). `AGACGA`
-0.49

Could you share which FACS-Seq fitted mean (log10) value was measured for `AUUUUG` ?
0.462

Record request: FACS-Seq fitted mean (log10) value, item `AAAUGC`
0.594

Query: FACS-Seq fitted mean (log10); subject: `ACAAAG`
0.424

# get_value(readout='FACS-Seq fitted mean (log10)', item= `UUUCCG` )
0.446

Report FACS-Seq fitted mean (log10) for `GAAACU` please.
0.175

# get_value(readout='FACS-Seq fitted mean (log10)', item= `GAACGG` )
0.0676

Item `UGUAUU` has what recorded FACS-Seq fitted mean (log10)?
0.438

# input variant: `ACUAAA` ; wanted: its FACS-Seq fitted mean (log10)
0.538

Field request: FACS-Seq fitted mean (log10) | item: `AAAGGC`
0.486

Query (variant): `UGUUGA` ; field requested: FACS-Seq fitted mean (log10)
0.32

Reported FACS-Seq fitted mean (log10) for `CAGUAA` : what is it?
0.289

I would be grateful if you could share the reported FACS-Seq fitted mean (log10) for `AGGCUC` .
0.131

Which value of FACS-Seq fitted mean (log10) has been reported for `GUUAGG` in the records?
0.206

Tell me the measured FACS-Seq fitted mean (log10) of `UCUUAG` , please.
0.183

Value lookup for FACS-Seq fitted mean (log10); key = `CAAUAA`
0.248

Please report the recorded FACS-Seq fitted mean (log10) for `UUAGAA` .
0.323

Consider the variant `UAGGGA` and give its measured FACS-Seq fitted mean (log10).
0.295

What value of FACS-Seq fitted mean (log10) has been reported for the following variant? `GUCAAG`
0.249

Suppose we examine the variant `GGUGAC` ; what FACS-Seq fitted mean (log10) value has been reported?
0.359

For the variant `GAUGAG` , what FACS-Seq fitted mean (log10) is on record?
0.483

Which FACS-Seq fitted mean (log10) value is on record for `UGAAUG` ?
0.0422

Name the reported FACS-Seq fitted mean (log10) value associated with the variant `UGGGAG`
-0.0508

I would be grateful if you could share the reported FACS-Seq fitted mean (log10) for `AUGGUU` .
0.245

Look up FACS-Seq fitted mean (log10): `AUGAGU`
0.287

Recorded FACS-Seq fitted mean (log10) for `UGCGGG` , please?
-0.0146

Need FACS-Seq fitted mean (log10) of `GUACAC` , thanks.
0.175

Fill in: FACS-Seq fitted mean (log10) of `CUAAAG` is ___
-0.0676

For the variant shown here, `GGGGAA` , give the reported FACS-Seq fitted mean (log10).
0.571

Fill in: FACS-Seq fitted mean (log10) of `UAGUGC` is ___
0.371

# get_value(readout='FACS-Seq fitted mean (log10)', item= `UUGCUA` )
0.353

Requested read-out: FACS-Seq fitted mean (log10). Entry: `GAGGUA`
0.345

# query: FACS-Seq fitted mean (log10) of entry `AUAUCC`
0.455

If you can, please state the reported FACS-Seq fitted mean (log10) value of `AAAUAC` .
0.31

Suppose we examine the variant `GAAAUG` ; what FACS-Seq fitted mean (log10) value has been reported?
0.431

Using the record for `UAAACG` , report its FACS-Seq fitted mean (log10).
0.324

Entry `GUGCGA` has what FACS-Seq fitted mean (log10)?
0.238

Would you mind telling me what FACS-Seq fitted mean (log10) value was observed for `ACAGUG` ?
0.321

Quick one: FACS-Seq fitted mean (log10) of `AACCUU` ?
0.578

// FACS-Seq fitted mean (log10) lookup, key: `GGCCAU`
0.522

Record request: FACS-Seq fitted mean (log10) value, item `UACAGU`
0.183

Which FACS-Seq fitted mean (log10) value is on record for `GGCGAC` ?
0.216

FACS-Seq fitted mean (log10) lookup needed for `AAGUGA` , thanks.
0.288

Give the measured FACS-Seq fitted mean (log10) of `AUAUGU` .
0.367

FACS-Seq fitted mean (log10) for `ACUUGG` ?
0.457

Report FACS-Seq fitted mean (log10) for `GGAGAU` please.
0.0885

What value of measured FACS-Seq fitted mean (log10) is listed for `UACAUA` ?
0.329

Need FACS-Seq fitted mean (log10) of `CUGCAG` , thanks.
0.542

Find the recorded FACS-Seq fitted mean (log10) belonging to `UAUACU` and report it.
0.4
